# measured-target: TXNDC5 (wild type) (Homo sapiens, UniProt Q8NBS9 Q8NBS9:33-432)
# Sequence (Q8NBS9 33-432, one chain of several): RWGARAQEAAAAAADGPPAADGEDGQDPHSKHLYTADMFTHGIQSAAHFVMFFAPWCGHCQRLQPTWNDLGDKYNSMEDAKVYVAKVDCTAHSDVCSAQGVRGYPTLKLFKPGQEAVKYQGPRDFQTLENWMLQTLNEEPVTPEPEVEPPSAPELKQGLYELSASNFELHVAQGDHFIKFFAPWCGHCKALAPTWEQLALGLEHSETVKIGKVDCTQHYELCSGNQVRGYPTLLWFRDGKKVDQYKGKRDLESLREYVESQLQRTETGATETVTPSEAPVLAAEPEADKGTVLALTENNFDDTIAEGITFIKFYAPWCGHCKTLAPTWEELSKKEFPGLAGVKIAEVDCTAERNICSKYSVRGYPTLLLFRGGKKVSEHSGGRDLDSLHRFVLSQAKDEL
# assay-protocol: inhibition; insulin reduction turbidity assay, 0.5 mM DTT, potassium phosphate, EDTA, pH 7
# condition-parameters: tags: Ni-column purified, baculovirus/insect cells, Sino Biological; single stem-loop (predicted)
property: IC50 (µM)
Give the quantity in µM, number only.

Item under review: AGCAGCACAGAGGTCTCTTATTACTCTCCCGTACCGCGTGCTACCGTGAA (ssDNA) [Aptamer-11] . Reported IC50?
263
